Hi there, I'd appreciate the recorded protein stability index for every entry that follows.
- protocolSummary: protein stability index of a GFP-peptide fusion (GPS, HEK-293T) (PSI 1-6); higher = more stable;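 also: 24-mer peptide tiles fused after GFP, lentivirally expressed, FACS-sorted into six equal bins by GFP/DsRed ratio, decoded by Illumina sequencing, PSI is the read-weighted mean bin number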
- conditionDetails: treatment: DMSO; c terminus: a fixed tail appended
Respond using a number only.

For this sequence ( DKLYHPECFMCSDCGLNLKQRGYF [PDLIM4] ), measured protein stability index is 2.22

Record PSGEEEAKVGPGLPDGCQPLQLLR [CBY2] . Reported protein stability index: 4.75

# protein stability index of KIGNSAFARYPNGVVVHYFCSKEV [VPS39] = 2.41

Recorded protein stability index (sequence NLTRRFSDLGFEVKCFNDLKAEEL [CASP6] ): 2.76

So for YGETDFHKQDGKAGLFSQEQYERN [TMEM40] , the logged protein stability index turned out to be 4.18

Record DDALEDFKKVLDLNPGFQDATLSL [TTC32] . Reported protein stability index: 3.73

Please fill in: protein stability index reported for QRDSKCKVKWTHEEDEQLRALVRQ [MYBL2] = 4.25

Recorded result, KVDGPRSPSYGRSRSRSRSRSRSR [SRSF1] , protein stability index: 5.27

The sequence identified as MESKRLRLLQEEDRRKKIARMGFN [DCAF4] registered its protein stability index at 3.44

What the record says about RQKTSGPSVIQEIHQESGKAPSTD [C10orf62] : protein stability index is 5.41

The measured protein stability index associated with TVMILPVTHTEISPEQQFDRSVQR [TMEM175] reads 3.64

====

Assignment: determine reported protein stability index for the given sequences.
- protocolSummary: protein stability index of a GFP-peptide fusion (GPS, HEK-293T) (PSI 1-6); higher = more stable
- conditionDetails: treatment: MLN4924 1 uM, 8 h; c terminus: a fixed tail appended
Reply with just the number.

Sample MSEWSECTAKCGERSVVTRDIRCS [ADAMTSL2] ; protein stability index observed: 3.74

# protein stability index (sequence: CRMSIRRVMPTQEVQELPIPSKLL [WSB1] ) is 2.52

The value of protein stability index measured for the sequence RGRPRKLSKEYWDCLEGKKSKHAP [ELF3] turned out to be 4.19

Entry GDTSATESGDEVPVELYTAFQHTP [KMT2E] — recorded protein stability index = 5.04

Briefly, protein stability index measured for NHPDLAKDLTEYLKVRSHDPEEAI [PDS5B] : 4.43

protein stability index in this record for VSQAVEGPEELSRSSSESKLPSSG [RIPK4] : 5.06

Recorded protein stability index (sequence DPPLSQDERTHRSDRPFKCNQCGK [ZNF8] ): 5.11

Lookup result for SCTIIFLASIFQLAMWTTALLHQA [TMEM175] ; measured protein stability index: 3.17

Lab book: protein stability index of KIMIIICCVILGIVIASTVGGIFA [STX1A] noted as 2.23

Please fill in: protein stability index reported for TLPVLEASSWKKQVSHDFLETRFK [FBXO34] = 3.1

Quick note, protein stability index for TFAGDTCQVALNFANEEEAKKFRK [WASL] landed at 4.73

Record summary for PLEGSAKGKVQAELSQPLTAGGAI [RBBP5] : reported protein stability index = 4.72

Entry under test: AIDQYRVCQEVLERSRDVVDEVSV [RHOBTB1] . Its protein stability index was 4.32

sequence GVSFSTVENELMISYLMFLQILVY [FAM98B] , protein stability index observed: 3.22

The reported value for EGEIATYRHLLEGEDCKLPPQPCA [KRT36] in terms of protein stability index is 4.26

Looking up LAIFKSGGIPALVKMLGSPVDSVL [CTNNB1] , I found its protein stability index recorded as 2.14

For this sequence ( PHLPRVMLPGVLAGVSAEESWAGP [SCNN1D] ), measured protein stability index is 3.4

The sequence identified as ADVLLQAGADLEHESEGGRTPLMK [ANKRD17] registered its protein stability index at 5.29

====

Assignment: determine reported protein stability index for the given sequences.
- protocolSummary: protein stability index of a GFP-peptide fusion (GPS, HEK-293T) (PSI 1-6); higher = more stable
- conditionDetails: treatment: MLN4924 1 uM, 8 h; c terminus: a fixed tail appended
Enter a number only.

// protein stability index value for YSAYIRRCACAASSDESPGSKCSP [TTC32] : 2.85

The sequence listed as RFQDPAAASISDGDCDAREEKQRE [FAM219A] has a reported protein stability index of 5.46

Entry GQDTMLKAMFSGRVEVLTDAGGWV [KCTD13] ; protein stability index = 2.36

For RLWGIRKNRPAMNYDKLSRSIRQY [SPDEF] the sequence record lists protein stability index as 2.4

protein stability index for ARALLEDDSDTQQVVVLVRDNGDP [PCDHGC5] is 4.79

// field: protein stability index; key: PSSNNKELFYRVNYIGTKNVIETC [NSDHL] ; value = 2.55

In plain terms, ITIGYRVYHSYDLPWFRTLSWYFL [CDS1] has a documented protein stability index of 3.1

Given item TSVLATLVVFAVLGFKANIMNEKC [SLC6A17] , the value recorded as its protein stability index is 3.31

# sequence PAATEAYGSGDTPGGPCDSTLGGD [TBX6] ; its protein stability index = 5.3

protein stability index for AELKEAVEEPSSKDVMEKREDSKE [CHGA] is 5.61

Lab note: TRILKHSPESSRGQCGENLAWASY [GLIPR2] gave protein stability index of 2.38

The sequence identified as LDNTKFRSHEGETAYIRVKVDGPR [SRSF1] registered its protein stability index at 3.49

get_value(item= MQVHKETIDAVPNAIPGRTDIELE [ZNF207] , readout=protein stability index) returns 5.17

Record VNYSDPNDADKAINTLNGLKLQTK [ELAVL3] . Reported protein stability index: 4.62

Lab note: PPPSAPASEYCPGKLSWGTMARAL [WDR88] gave protein stability index of 2.97

The sequence NFSAAKSLLKKPDGVKESTESSNT [CAMK2D] showed protein stability index equal to 5.28

Query AGKQRMKEKEQENERKVAQLAEEN [DDIT3] yields protein stability index of 5.49

Short answer for FAIGARARAEAEQMAKKAEAFQLY [FLOT1] : protein stability index was 3.02

The reported value for NIHPQVLLPDQARGEVPWSPELGR [ZNF263] in terms of protein stability index is 4.34

Noted for KLSEHLRYCDSILREMLSKKHAAY [BRD3] : its protein stability index reads 2.14

// field: protein stability index; key: IDILWRQDIDLGAGREVFDYSHRQ [NFE2L1] ; value = 2.49

Notebook: LTGTARYMSINTHLGKEQSRRDDL [CSNK1G1] , protein stability index read as 4.02

The sequence listed as KVDGPRSPSYGRSRSRSRSRSRSR [SRSF1] has a reported protein stability index of 5.46

The sequence listed as CTLEQDHFKKQTIYRFLKLHPRGK [FEM1C] has a reported protein stability index of 2.65

Short answer for DAEFLCVFCREGPTHQAHTVGFLD [TRIM15] : protein stability index was 2.34

Please fill in: protein stability index reported for IRLQAELEEGENPVPAFQSDGTDE [SMG5] = 5.12

The reported value for GGYRPAEDKIFPVPEEPPVKKLMR [ZBED1] in terms of protein stability index is 4.36

Data point: DFITLYQMASQSSASHYKLQVIKA [M1AP] ; protein stability index = 2.44

Lab book: protein stability index of AAAHWYGGAEMRTQHWPIRLDGQQ [MYORG] noted as 2.79

Lookup result for SSAGSAEQTAPGDSTGYMEVSLDS [EHMT1] ; measured protein stability index: 5.33

The sequence listed as RRKIRELQLRYSLRILIGDPPHHD [BEX5] has a reported protein stability index of 2.07

Form field protein stability index, entry KVPNHYIAIPEWFLSENATVAAET [CPXM2] : 3.32

VKSVSPQGNSVDRMAAPRAEALFD [NCF4] has a reported protein stability index of 4.71

Measured protein stability index, EAQERELRKREKAEEKERRRKEYD [LRRC59] : 5.49

Reported protein stability index for TCLMISCYKGHKEIAQYLLEKGAD [FEM1C] was 2.05

Per the record, SMFTLPVVYVKHQAQIDQYLGLVR [RTN1] has protein stability index of 2.23

// protein stability index value for LIDRSGRHFGTILNYLRDGSVPLP [KCTD13] : 2.46

====

Field: protein stability index. Provide a value for each of the sequences that follow.
- protocolSummary: protein stability index of a GFP-peptide fusion (GPS, HEK-293T) (PSI 1-6); higher = more stable
- conditionDetails: treatment: MLN4924 1 uM, 8 h; c terminus: a fixed tail appended
Number only, please.

Recorded result, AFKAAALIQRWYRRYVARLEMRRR [PPEF2] , protein stability index: 4.15

Consider ASRQKTSLGIELHCNVSNILHMNG [ZNF396] . Its measured protein stability index is 2.12

TYGRRAKGHNTPKDIAHFWELGGG [DYNC2LI1] has a reported protein stability index of 3.07

The recorded protein stability index for AYEIMQTLHPDASANFHSLDDIYY [FUT8] is 2.93

get_value(item= FKPLNSTPATTTEPPKPTFPAYTQ [ZNF207] , readout=protein stability index) returns 3.9

So for LSQSPEPGRRGDPDTAPPSERPLE [RTN2] , the logged protein stability index turned out to be 5.56
